System: MDA-MB-231 breast
Experiment: NCI tumour cell line growth inhibition, 48 h
measurement.name: TGI

The cases that follow already have their TGI on record.
{"columns": ["compound", "measurement.name", "measurement"],
 "data": [
  ["COC(=O)c1cc(OS(=O)(=O)C(F)(F)F)c(=O)n2c1CCCC2", "TGI", "> 100 µM"],
  ["O=C(O)CCO/N=C1/C(c2c(O)[nH]c3ccccc23)=Nc2ccccc21", "TGI", "> 100 µM"],
  ["Cc1cc(S(=O)(=O)Nc2nnc3c4ccccc4cnn23)c(S)cc1Cl", "TGI", "> 100 µM"],
  ["Cc1c[nH]c(C(=O)O)c1-c1cccn1-c1ccc(Cl)cc1[N+](=O)[O-]", "TGI", "> 100 µM"],
  ["CC1C2CCC3C(O)C2(CC(O)C2(O)C1CC(O)C2(C)C)CC3(C)O (stereo unspecified)", "TGI", "> 100 µM"]
]}

# ---- query compound ----
Q: Reported TGI for "Nc1ccccc1C#C/C=C\C#CC#C/C=C\C#Cc1ccccc1N" : what is it?
Ans: 14.8 µM
